organism: Rattus norvegicus; experiment: DrugMatrix - Regimen: Daily Repeat; assay type: toxicity, organism-based, Sprague-Dawley; set-up: regimen Daily Repeat, gender Male, age 6-8 weeks; conditions: in vivo, po, 0 mg/kg, 120 h, tissue Plasma, route oral GAVAGE, dose level Control, time 5 day, vehicle .5 % CMC
READOUT LABEL: BLOOD UREA NITROGEN (mg/dL)
API: value field is a number in mg/dL; no unit string.

N=C(N)NCCN1CCCCCCC1 [GUANETHIDINE] | 16.33
CC(C)(C)NC(=O)[C@@H]1C[C@@H]2CCCC[C@@H]2CN1C[C@@H](O)[C@H](Cc1ccccc1)NC(=O)[C@H](CC(N)=O)NC(=O)c1ccc2ccccc2n1 | 20
CCOP(=S)(OCC)Oc1nc(Cl)c(Cl)cc1Cl [CHLORPYRIFOS] | 13

Lookup: Entry CN1CCN(CCCN2c3ccccc3Sc3ccc(Cl)cc32)CC1 [PROCHLORPERAZINE] needs its BLOOD UREA NITROGEN filled in; supply it.
Found: 15.5

Lookup: Entry COc1nc(C)nc(Cl)c1N=C1NCCN1 [MOXONIDINE] needs its BLOOD UREA NITROGEN filled in; supply it.
Found: 20.5

Lookup: Entry OCCN(CCO)c1nc(N2CCCCC2)c2nc(N(CCO)CCO)nc(N3CCCCC3)c2n1 [DIPYRIDAMOLE] needs its BLOOD UREA NITROGEN filled in; supply it.
Found: 16.33

Lookup: Entry ClC(Cl)Br [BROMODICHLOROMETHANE] needs its BLOOD UREA NITROGEN filled in; supply it.
Found: 15.33

Lookup: Entry CC1CC(OC(=O)C(O)c2ccccc2)CC(C)(C)C1 (centres undefined) [CYCLANDELATE] needs its BLOOD UREA NITROGEN filled in; supply it.
Found: 16.33

Lookup: Entry Cc1ccc(/N=C/N(C)/C=N/c2ccc(C)cc2C)c(C)c1 [AMITRAZ] needs its BLOOD UREA NITROGEN filled in; supply it.
Found: 16.67

---

organism: Rattus norvegicus; assay: DrugMatrix - Regimen: Daily Repeat; format: toxicity, organism-based, Sprague-Dawley; design: regimen Daily Repeat, gender Male, age 6-8 weeks; details: in vivo, po, 0 mg/kg, 72 h, tissue Blood, route oral GAVAGE, dose level Control, time 3 day, […]
READOUT LABEL: ABSOLUTE LYMPHOCYTE (CELLS/uL)
API: value field is a number in CELLS/uL; no unit string.

Below, 4 molecules whose answers are already recorded.
CC(C)C(=O)Nc1ccc([N+](=O)[O-])c(C(F)(F)F)c1 [FLUTAMIDE] | 10069.5
CCC(C)n1ncn(-c2ccc(N3CCN(c4ccc(OCC5COC(Cn6cncn6)(c6ccc(Cl)cc6Cl)O5)cc4)CC3)cc2)c1=O (stereo not given) | 14547
CN(C)c1nc(N(C)C)nc(N(C)C)n1 | 12761.5
OC(Cn1cncn1)(Cn1cncn1)c1ccc(F)cc1F | 14547

Lookup: Entry Cc1ccc(-c2cc(C(F)(F)F)nn2-c2ccc(S(N)(=O)=O)cc2)cc1 needs its ABSOLUTE LYMPHOCYTE filled in; supply it.
Found: 14547

---

organism: Rattus norvegicus; format: toxicity, organism-based, Sprague-Dawley; details: in vivo, po, 120 mg/kg, 24 h, tissue Blood, route oral GAVAGE, dose level High, time 1 day, vehicle 100 % WATER
Description: DrugMatrix - Regimen: Single
READOUT LABEL: ABSOLUTE LYMPHOCYTE (cells/µL)
API: value field is a number in cells/µL; no unit string.

Lookup: Entry COCCc1ccc(OCC(O)CNC(C)C)cc1 (stereo unspecified) needs its ABSOLUTE LYMPHOCYTE filled in; supply it.
Found: 8230

---

URIC ACID values, listed per item
species: Rattus norvegicus; assay: DrugMatrix - Regimen: Daily Repeat; assay type: toxicity, organism-based, Sprague-Dawley; design: regimen Daily Repeat, gender Male, age 6-8 weeks; settings: in vivo, po, 0 mg/kg, […], tissue Plasma, route oral GAVAGE, dose level Control, time 14 day, vehicle .5 % CMC
API: value field is a number in mg/dL; no unit string.

CCOP(=S)(OCC)Oc1nc(Cl)c(Cl)cc1Cl | 1.78

Lookup: Entry COc1ccc(C(=O)Nc2c(Cl)c[n+]([O-])cc2Cl)c2ccc(C(F)(F)F)nc12 needs its URIC ACID filled in; supply it.
Found: 1.57

Lookup: Entry ClC(Cl)Br needs its URIC ACID filled in; supply it.
Found: 1.25

Lookup: Entry ClC(Br)Br needs its URIC ACID filled in; supply it.
Found: 1.25

---

species on record: Rattus norvegicus; assay: DrugMatrix - Regimen: Daily Repeat; format: toxicity, organism-based, Sprague-Dawley; parameters: regimen Daily Repeat, gender Male, age 6-8 weeks; settings: in vivo, po, 0 mg/kg, 120 h, tissue Blood, route oral GAVAGE, dose level Control, time 5 day, […]
READOUT LABEL: LYMPHOCYTE

Below, 4 compounds whose answers are already recorded.
CC(C)(Oc1ccc(Cl)cc1)C(=O)O [CLOFIBRIC ACID] | 84.5%
CC(C)C(=O)Nc1ccc([N+](=O)[O-])c(C(F)(F)F)c1 [FLUTAMIDE] | 94.33%
C[C@H]1O[C@@H](O[C@H]2[C@@H](O)C[C@H](O[C@H]3[C@@H](O)C[C@H](O[C@H]4CC[C@@]5(C)[C@H](CC[C@@H]6[C@@H]5C[C@@H](O)[C@]5(C)[C@@H](C7=CC(=O)OC7)CC[C@]65O)C4)O[C@@H]3C)O[C@@H]2C)C[C@H](O)[C@@H]1O [DIGOXIN] | 93.17%
O=c1oc2ccccc2c(O)c1Cc1c(O)c2ccccc2oc1=O [DICUMAROL] | 88.67%

Lookup: Entry O=C(O)CCCc1ccc(N(CCCl)CCCl)cc1 [CHLORAMBUCIL] needs its LYMPHOCYTE filled in; supply it.
Found: 79.67%

Lookup: Entry Cc1oncc1C(=O)Nc1ccc(C(F)(F)F)cc1 [LEFLUNOMIDE] needs its LYMPHOCYTE filled in; supply it.
Found: 87%

Lookup: Entry OC(Cn1cncn1)(Cn1cncn1)c1ccc(F)cc1F [FLUCONAZOLE] needs its LYMPHOCYTE filled in; supply it.
Found: 79.67%

Lookup: Entry CCOC(=O)C1=C(COCCN)NC(C)=C(C(=O)OC)C1c1ccccc1Cl (stereo not drawn) [AMLODIPINE] needs its LYMPHOCYTE filled in; supply it.
Found: 90.17%

---

organism: Rattus norvegicus; assay: DrugMatrix - Regimen: Daily Repeat; assay type: toxicity, organism-based, Sprague-Dawley; set-up: regimen Daily Repeat, gender Male, age 6-8 weeks; conditions: in vivo, iv, 0 mg/kg, 120 h, tissue Plasma, dose level Control, time 5 day, vehicle 100 % SALINE
Starred links: 1 amine or outer side, 2 acyl side, 3 side chain; linkers in the order of their positions; H or OH if unused. Positions of bridges follow the written chain, without caps; N, C: chain ends. Non-standard residues stand in square brackets, D forms with d. Residues, ends and D or L forms follow the SMILES beside them. Chains are numbered I, II in the order given. Actinocin(9to1) = Cc1c2oc3c(C)ccc(C(=O)[*:1])c3nc-2c(C(=O)[*:2])c(N)c1=O; NMeV = CN[C@H](C(=O)O)C(C)C; Sar = CNCC(=O)O
READOUT LABEL: ALBUMIN (G/DL)
API: value field is a number in G/DL; no unit string.

Below, 3 molecules whose answers are already recorded.
CC[C@]1(O)C[C@H]2CN(CCc3c([nH]c4ccccc34)[C@@](C(=O)OC)(c3cc4c(cc3OC)N(C=O)[C@H]3[C@@](O)(C(=O)OC)[C@H](OC(C)=O)[C@]5(CC)C=CCN6CC[C@]43[C@@H]65)C2)C1 | 3.97
COc1cc2c3cc1Oc1cc(ccc1O)C[C@@H]1c4c(cc(OC)c(O)c4Oc4ccc(cc4)C[C@@H]3N(C)CC2)CC[N+]1(C)C.[Cl-] | 4.15
Cc1c2oc3c(C)ccc(C(=O)N[C@@H]4C(=O)N[C@H](C(C)C)C(=O)N5CCC[C@H]5C(=O)N(C)CC(=O)N(C)[C@@H](C(C)C)C(=O)O[C@@H]4C)c3nc-2c(C(=O)N[C@@H]2C(=O)N[C@H](C(C)C)C(=O)N3CCC[C@H]3C(=O)N(C)CC(=O)N(C)[C@@H](C(C)C)C(=O)O[C@@H]2C)c(N)c1=O [DACTINOMYCIN] (I: T[dV]P[Sar][NMeV] / II: T[dV]P[Sar][NMeV]; ester I:1-I:C, II:1-II:C; linker I:N-II:N via Actinocin(9to1)) | 4.12

In the following, a different molecule is considered.
Lookup: Entry Cc1ccc(N(CC2=NCCN2)c2cccc(O)c2)cc1 needs its ALBUMIN filled in; supply it.
Found: 4.35

// data source = ChEMBL document CHEMBL3885881
